FYI, the data here is from PubChem BioAssay (NCI).

System: CCRF-CEM leukemia
Experiment: NCI tumour cell line growth inhibition, 48 h
Quick reference for TGI among some compounds

compound: COc1ccc(N(C)c2nc(C)nc3ccccc23)cc1
target-entity: CCRF-CEM leukemia
TGI: > 100 µM
--
compound: Cn1c(=O)n2n(c1=O)Cc1cccc3cccc(c13)C2
target-entity: CCRF-CEM leukemia
TGI: > 100 µM
--
compound: CC(C)Nc1[nH]c(C(=O)c2ccccc2)c(N)c1C(=S)Nc1ccccc1
target-entity: CCRF-CEM leukemia
TGI: > 100 µM
--
compound: Cc1cn(CC2=NCCN2)c(=O)[nH]c1=O
target-entity: CCRF-CEM leukemia
TGI: > 100 µM
--
compound: O=C1/C(=C\c2ccc([N+](=O)[O-])cc2)Sc2scc(-c3ccc(O)c(O)c3)[n+]21
target-entity: CCRF-CEM leukemia
TGI: 16.3 µM
--
compound: O=c1[nH]c2cc(C(F)(F)F)ccc2nc1Cc1ccccc1
target-entity: CCRF-CEM leukemia
TGI: > 100 µM
--
compound: COc1ccccc1C(=O)/C=C/c1cc2cccc(OC)c2[nH]c1=O
target-entity: CCRF-CEM leukemia
TGI: > 37.9 µM
--
compound: CCCCOC(=O)C(=O)C(CC(C(=O)Cc1ccccc1)c1ccccc1)C(=O)C=C(C)C (stereo not given)
target-entity: CCRF-CEM leukemia
TGI: > 100 µM
--
compound: COc1c(Cl)ccc(Cl)c1C(=O)NNC(=O)c1c(Cl)c(Cl)c(Cl)c(Cl)c1-c1nc2ccc(C(=O)c3ccccc3)cc2[nH]1
target-entity: CCRF-CEM leukemia
TGI: > 100 µM
--
compound: COc1cc(N(CCC#N)CCC#N)ccc1/C(N=Nc1ccc(C)cc1)=N/NC(=O)c1cc(Br)ccc1O
target-entity: CCRF-CEM leukemia
TGI: 25.2 µM
